Test Name: AP1 Signaling Pathway (AID 357);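 note: ME-180 reporter cells stimulated with EGF at its EC50 level; % is set by controls: 0 for no effect and ±100 for the full control effect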
Condition Summary: ME-180 (cervical carcinoma) AP-1-bla reporter, EGF-induced, beta-lactamase ratio, 5 h; at 17.2 µM (top of the series) unless noted
Results filed as inconclusive are left out.
Recorded activity change, negative = inhibition for the following compounds
# unit: % | format: bare number

// solved cases for activity change, negative = inhibition follow
COCCNc1oc(-c2ccc(F)cc2)nc1C#N = -13.6
CC(=O)Nc1ccc(S(=O)(=O)Nc2nc3n(n2)C(c2ccccc2)CC(=O)N3)cc1 (configuration not stated) = 4.99
COc1ccc(C(=O)/C=C/Nc2cccc(C)n2)cc1OC = -16.3
c1ccc2c(c1)nc(CN1CCOCC1)n1c3ccccc3nc21 = 25.2
OCCOCCNc1ncnc2c1cnn2-c1ccccc1 = 7

Recorded result, O=C(C1=C(O)C(=O)N(CCN2CCOCC2)C1c1cccnc1)c1cc2ccccc2o1 (configuration not stated) , activity change, negative = inhibition: 8.94

Recorded result, CC(=O)OCC(=O)[C@@]1(O)CC[C@H]2[C@@H]3CCC4=CC(=O)CC[C@]4(C)[C@H]3[C@@H](O)C[C@@]21C , activity change, negative = inhibition: 11.1
